Every entry's value here was drawn from paper PMC8571487.

Sequence of the target: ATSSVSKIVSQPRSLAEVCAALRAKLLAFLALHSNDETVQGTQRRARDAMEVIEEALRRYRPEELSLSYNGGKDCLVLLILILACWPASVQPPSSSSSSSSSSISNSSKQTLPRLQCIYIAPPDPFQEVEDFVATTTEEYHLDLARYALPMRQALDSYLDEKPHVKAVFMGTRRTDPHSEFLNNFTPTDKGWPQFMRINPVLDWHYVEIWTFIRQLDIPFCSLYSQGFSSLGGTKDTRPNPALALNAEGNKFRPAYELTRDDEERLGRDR
resultType: Kd (µM)

structureString	Kd / µM
Cc1cc2nc3c(=O)[nH]c(=O)nc-3n(C[C@H](O)[C@H](O)[C@H](O)COP(=O)(O)O)c2cc1C	20.8
Nc1ncnc2c1ncn2[C@@H]1O[C@H](COP(=O)(O)OP(=O)(O)OP(=O)(O)O)[C@@H](O)[C@H]1O	16.6
